- assay-protocol: total protein half-life in vivo (active degradation + dilution); higher = more stable protein
- recorded-conditions: E. coli NCM3722 delta-clpP; growth: N-lim chemostat; doubling time 6 h
Entries and their total protein half-life in vivo values follow.
// return numeric value only (unit: h, not printed)

In the examples that follow, each entry is paired with its recorded total protein half-life in vivo.
• MILIIYAHPYPHHSHANKRMLEQARTLEGVEIRSLYQLYPDFNIDIAAEQEALSRADLIVWQHPMQWYSIPPLLKLWIDKVFSHGWAYGHGGTALHGKHLLWAVTTGGGESHFEIGAHPGFDVLSQPLQATAIYCGLNWLPPFAMHCTFICDDETLEGQARHYKQRLLEWQEAHHG [P0A754] = 6.16
• MLAFCRSSLKSKKYIIILLALAAIAGLGTHAAWSSNGLPRIDNKTLARLAQQHPVVVLFRHAERCDRSTNQCLSDKTGITVKGTQDARELGNAFSADIPDFDLYSSNTVRTIQSATWFSAGKKLTVDKRLLQCGNEIYSAIKDLQSKAPDKNIVIFTHNHCLTYIAKDKRDATFKPDYLDGLVMHVEKGKVYLDGEFVNH = 5.63
• MRRTFIKKEGVVITTLARYLLGEKCGNRLKTIDELANECRSSVGLTQAALKTLESSGAIRIERRGRNGSYLVEMDNKALLTHVDINNVVCAMPLPYTRLYEGLASGLKAQFDGIPFYYAHMRGADIRVECLLNGVYDMAVVSRLAAESYLTQKGLCLALELGPHTYVGEHQLICRKGESANVKRVGLDNRSADQKIMTDVFFGGSDVERVDLSYHESLQRIVKGDVDAVIWNVVAENELTMLGLEATPLTDDPRFLQATEAVVLTRVDDYPMQQLLRAVVDKHALLAHQQRVVSGEQEPSY = 5.94
• MSLTLTLTGTGGAQGVPAWGCECAACARARRSPQYRRQPCSGVVKFNDAITLIDAGLHDLADRWSPGSFQQFLLTHYHMDHVQGLFPLRWGVGDPIPVYGPPDEQGCDDLFKHPGLLDFSHTVEPFVVFDLQGLQVTPLPLNHSKLTFGYLLETAHSRVAWLSDTAGLPEKTLKFLRNNQPQVMVMDCSHPPRADAPRNHCDLNTVLALNQVIRSPRVILTHISHQFDAWLMENALPSGFEVGFDGMEIGVA = 4.09
• MMSTTLFKDFTFEAAHRLPHVPEGHKCGRLHGHSFMVRLEITGEVDPHTGWIIDFAELKAAFKPTYERLDHHYLNDIPGLENPTSEVLAKWIWDQVKPVVPLLSAVMVKETCTAGCIYRGE = 6.75

# next sequence below
Noted for MQENQQITKKEQYNLNKLQKRLRRNVGEAIADFNMIEEGDRIMVCLSGGKDSYTMLEILRNLQQSAPINFSLVAVNLDQKQPGFPEHVLPEYLEKLGVEYKIVEENTYGIVKEKIPEGKTTCSLCSRLRRGILYRTATELGATKIALGHHRDDILQTLFLNMFYGGKMKGMPPKLMSDDGKHIVIRPLAYCREKDIQRFADAKAFPIIPCNLCGSQPNLQRQVIADMLRDWDKRYPGRIETMFSAMQNVVPSHLCDTNLFDFKGITHGSEVVNGGDLAFDREEIPLQPACWQPEEDENQLDELRLNVVEVK : its total protein half-life in vivo reads 3.63

----------
- assay-protocol: total protein half-life in vivo (active degradation + dilution); higher = more stable protein
- recorded-conditions: wild type E. coli NCM3722; growth: N-lim chemostat; doubling time 6 h
Please enter true (1) where total protein half-life in vivo is greater than or equal to 5 h, and false (0) where it is lower.

Answered cases to consult:
* MKLDEIARLAGVSRTTASYVINGKAKQYRVSDKTVEKVMAVVREHNYHPNAVAAGLRAGRTRSIGLVIPDLENTSYTRIANYLERQARQRGYQLLIACSEDQPDNEMRCIEHLLQRQVDAIIVSTSLPPEHPFYQRWANDPFPIVALDRALDREHFTSVVGADQDDAEMLAEELRKFPAETVLYLGALPELSVSFLREQGFRTAWKDDPREVHFLYANSYEREAAAQLFEKWLETHPMPQALFTTSFALLQGVMDVTLRRDGKLPSDLAIATFGDNELLDFLQCPVLAVAQRHRDVAERVLEIVLASLDEPRKPKPGLTRIKRNLYRRGVLSRS [P0ACP1] | true (1)
* MGGISIWQLLIIAVIVVLLFGTKKLGSIGSDLGASIKGFKKAMSDDEPKQDKTSQDADFTAKTIADKQADTNQEQAKTEDAKRHDKEQV | false (0)

Please find the next sequence below.
## Input Given the entry MTLTASSSSRAVTNSPVVVALDYHNRDDALAFVDKIDPRDCRLKVGKEMFTLFGPQFVRELQQRGFDIFLDLKFHDIPNTAAHAVAAAADLGVWMVNVHASGGARMMTAAREALVPFGKDAPLLIAVTVLTSMEASDLVDLGMTLSPADYAERLAALTQKCGLDGVVCSAQEAVRFKQVFGQEFKLVTPGIRPQGSEAGDQRRIMTPEQALSAGVDYMVIGRPVTQSVDPAQTLKAINASLQRSA , answer whether its total protein half-life in vivo meets or surpasses 5 h.
## Output false (0)

----------
Entries and their total protein half-life in vivo values follow.
- assay-protocol: total protein half-life in vivo (active degradation + dilution); higher = more stable protein
- recorded-conditions: E. coli NCM3722 delta-smpB; growth: N-lim chemostat; doubling time 6 h

In the examples that follow, each entry is paired with its recorded total protein half-life in vivo.
- MKTAYIAKQRQISFVKSHFSRQLEERLGLIEVQAPILSRVGDGTQDNLSGCEKAVQVKVKALPDAQFEVVHSLAKWKRQTLGQHDFSAGEGLYTHMKALRPDEDRLSPLHSVYVDQWDWERVMGDGERQFSTLKSTVEAIWAGIKATEAAVSEEFGLAPFLPDQIHFVHSQELLSRYPDLDAKGRERAIAKDLGAVFLVGIGGKLSDGHRHDVRAPDYDDWSTPSELGHAGLNGDILVWNPVLEDAFELSSMGIRVDADTLKHQLALTGDEDRLELEWHQALLRGEMPQTIGGGIGQSRLTMLLLQLPHIGQVQCGVWPAAVRESVPSLL: 2.77 h
- MGQLIDGVWHDTWYDTKSTGGKFQRSASAFRNWLTADGAPGPTGTGGFIAEKDRYHLYVSLACPWAHRTLIMRKLKGLEPFISVSVVNPLMLENGWTFDDSFPGATGDTLYQNEFLYQLYLHADPHYSGRVTVPVLWDKKNHTIVSNESAEIIRMFNTAFDALGAKAGDYYPPALQTKIDELNGWIYDTVNNGVYKAGFATSQEAYDEAVAKVFESLARLEQILGQHRYLTGNQLTEADIRLWTTLVRFDPVYVTHFKCDKHRISDYLNLYGFLRDIYQMPGIAETVNFDHIRNHYFRSHKTINPTGIISIGPWQDLDEPHGRDVRFG: 5.01 h
- MAHRPRWTLSQVTELFEKPLLDLLFEAQQVHRQHFDPRQVQVSTLLSIKTGACPEDCKYCPQSSRYKTGLEAERLMEVEQVLESARKAKAAGSTRFCMGAAWKNPHERDMPYLEQMVQGVKAMGLEACMTLGTLSESQAQRLANAGLDYYNHNLDTSPEFYGNIITTRTYQERLDTLEKVRDAGIKVCSGGIVGLGETVKDRAGLLLQLANLPTPPESVPINMLVKVKGTPLADNDDVDAFDFIRTIAVARIMMPTSYVRLSAGREQMNEQTQAMCFMAGANSIFYGCKLLTTPNPEEDKDLQLFRKLGLNPQQTAVLAGDNEQQQRLEQALMTPDTDEYYNAAAL: 0.799 h
- MKKIACLSALAAVLAFTAGTSVAATSTVTGGYAQSDAQGQMNKMGGFNLKYRYEEDNSPLGVIGSFTYTEKSRTASSGDYNKNQYYGITAGPAYRINDWASIYGVVGVGYGKFQTTEYPTYKHDTSDYGFSYGAGLQFNPMENVALDFSYEQSRIRSVDVGTWIAGVGYRF [P0A917]: 5.81 h

# next sequence below
Noted for MLLSIITVAFRNLEGIVKTHASLAHLAQVEDISFEWIVVDGGSNDGTREYLENLNGIFNLRFVSEPDNGIYDAMNKGIAMAQGKFALFLNSGDIFHQNAANFVRKLKMQKDNVMITGDALLDFGDGHKIKRSAKPGWYIYHSLPASHQAIFFPVSGLKKWRYDLEYKVSSDYALAAKMYKAGYAFKKLNGLVSEFSMGGVSTTNNMELCADAKKVQRQILHVPGFWAELSWHLRQRTTSKTKALYNKV : its total protein half-life in vivo reads 0.818 h

----------
Entries and their total protein half-life in vivo values follow.
- assay-protocol: total protein half-life in vivo (active degradation + dilution); higher = more stable protein
- recorded-conditions: wild type E. coli NCM3722; growth: N-lim chemostat; doubling time 6 h

* MENYLIDNLDRGILEALMGNARTAYAELAKQFGVSPGTIHVRVEKMKQAGIITGARIDVSPKQLGYDVGCFIGIILKSAKDYPSALAKLESLDEVTEAYYTTGHYSIFIKVMCRSIDALQHVLINKIQTIDEIQSTETLIVLQNPIMRTIKP [P0ACI6] | 5.85 h

Noted for MDALELLINRRSASRLAEPAPTGEQLQNILRAGMRAPDHKSMQPWHFFVIEGEGRERFSAVLEQGAIAAGSDDKAIDKARNAPFRAPLIITVVAKCEENHKVPRWEQEMSAGCAVMAMQMAAVAQGFGGIWRSGALTESPVVREAFGCREQDKIVGFLYLGTPQLKASTSINVPDPTPFVTYF [P0ACY1] : its total protein half-life in vivo reads 4.7 h

Data credit: the supplement of paper PMC11246515
